Test system: Colon cancer organoid
Assay: Identification of compartment-specific drug sensitivities in O06 CRC organoid-stroma F06 CAF co-cultures. Organoid is transduced with Lucferase2-P2A-EGFP lentivirus, fibroblast with Renilla-dsRed lentivirus. Dual-Glo Luciferase assay is used to report viability data.
Type: functional, Homo sapiens
Set-up: dose or concentration left out as unconfirmed
Conditions: Transduced with Renilla-dsRed lentivirus
Property: Cell Viability; scope: individual compounds
measured_attribute: Cell Viability (%)

1. O=C(O)c1ccc(-c2c[nH]c3ncc(-c4ccccc4)cc23)cc1C1CCCC1; 110.19
2. Cc1nnc2c3ccccc3c(N[C@@H](C)[C@H](c3ccccc3)N(C)C)nn12; 115.114
3. CCOc1ccc(S(=O)(=O)Nc2ccc(Cl)cc2C#Cc2cnc(C(=O)[O-])cc2OC)c2ncccc12.[K+]; 113.31
4. Cc1cc(NC(=O)c2cccc(S(F)(F)(F)(F)F)c2)cc(-n2ccn3nc(-c4cccnc4)cc23)c1; 47.7134
5. CC1=C(C)C(=O)C(C(C)(C)CC(=O)N(CCCCSC[C@H]2O[C@@H](n3cnc4c(N)ncnc43)[C@@H]3OC(C)(C)O[C@@H]32)Cc2cccc(-c3ccc(Cl)cc3)c2)=C(C)C1=O; 129.013
6. CN1CCN(c2ccc(-c3cccc(CN4CCOCC4)c3)cc2NC(=O)c2c[nH]c(=O)cc2C(F)(F)F)CC1; 122.014

Hey, just so you know, these numbers are from ChEMBL document CHEMBL5608141.
